Catalogue of Antimicrobial efficacy of treated fabric, S. aureus readings, one per entry.
System: Staphylococcus aureus
condition: 5 washes; Orlon treated with 1 mMol/L compound, pH 3; 10^5~10^6 CFU/mL; contact time 6 hrs
Unit % implied. Number only.

Some compounds with known Antimicrobial efficacy of treated fabric, S. aureus results, for comparison:
# compound, value.reported
measured = [
    ("CCCCCCCC[N+](C)(C)CC(=O)Nc1cccc2c1C(=O)c1ccccc1C2=O.[Cl-] [m-8]", 37.5),
    ("CCCCCCCCCCCC[N+](C)(C)CC(=O)Nc1cccc2c1C(=O)c1ccccc1C2=O.[Cl-] [m-12]", 75.0),
    ("CCCC[N+](C)(C)CC(=O)Nc1cccc2c1C(=O)c1ccccc1C2=O.[Cl-] [m-4]", 50.0),
    ("CCCC[N+](C)(C)CC(=O)Nc1ccc(NC(=O)C[N+](C)(C)CCCC)c2c1C(=O)c1ccccc1C2=O.[Cl-].[Cl-] [bi-4]", 36.4),
    ("CCCCCCCC[N+](C)(C)CC(=O)Nc1ccc(NC(=O)C[N+](C)(C)CCCCCCCC)c2c1C(=O)c1ccccc1C2=O.[Cl-].[Cl-] [bi-8]", 50.0),
]

Please turn your attention to the following entry.
(Q) Retrieve Antimicrobial efficacy of treated fabric, S. aureus measured for CCCCCCCCCCCC[N+](C)(C)CC(=O)Nc1ccc(NC(=O)C[N+](C)(C)CCCCCCCCCCCC)c2c1C(=O)c1ccccc1C2=O.[Cl-].[Cl-] [bi-12] and print it.
(A) 81.8
